test system: Streptococcus pneumoniae; assay: Antibacterial activity against multidrug-resistant Streptococcus pneumoniae after 20 hrs by cylinder and well method; type: functional; also: test concentration or dose not given here
parameter measured: inhibition zone (IZ)
// return the numeric value with its unit appended

O=C(O)c1ccccc1C1CC(c2cc3ccccc3o2)=NN1C(=O)Cn1c2ccccc2c2nc3ccccc3nc21 (stereo unspecified)    12 mm

Would you mind listing inhibition zone (IZ) for each of the following compounds?
1. COc1ccccc1C1CC(c2cc3ccccc3o2)=NN1C(=O)Cn1c2ccccc2c2nc3ccccc3nc21 (stereo unspecified)
2. C[C@@H]1CN(c2c(F)c(N)c3c(=O)c(C(=O)O)cn(C4CC4)c3c2F)C[C@H](C)N1
3. O=C(Cn1c2ccccc2c2nc3ccccc3nc21)N1N=C(c2cc3ccccc3o2)CC1c1ccccc1[N+](=O)[O-] (stereo unspecified)
4. COc1ccc(C2CC(c3cc4ccccc4o3)=NN2C(=O)Cn2c3ccccc3c3nc4ccccc4nc32)c(O)c1 (stereo unspecified)
5. CCn1cc(C(=O)O)c(=O)c2cc(F)c(N3CCNCC3)cc21

Found:
1: 10 mm; 2: 34 mm; 3: 13 mm; 4: 16 mm; 5: 22 mm

Would you mind listing inhibition zone (IZ) for each of the following compounds?
1. O=C(Cn1c2ccccc2c2nc3ccccc3nc21)N1N=C(c2cc3ccccc3o2)CC1c1ccc(Cl)cc1 (stereo unspecified)
2. O=C(Cn1c2ccccc2c2nc3ccccc3nc21)N1N=C(c2cc3ccccc3o2)CC1c1ccccc1 (stereo unspecified)
3. O=C(Cn1c2ccccc2c2nc3ccccc3nc21)N1N=C(c2cc3ccccc3o2)CC1c1cccc([N+](=O)[O-])c1 (stereo unspecified)
4. O=C(Cn1c2ccccc2c2nc3ccccc3nc21)N1N=C(c2cc3ccccc3o2)CC1c1ccccc1Cl (stereo unspecified)
5. O=C(Cn1c2ccccc2c2nc3ccccc3nc21)N1N=C(c2cc3ccccc3o2)CC1c1ccccc1O (stereo unspecified)

Found:
["15 mm", "20 mm", "14 mm", "14 mm", "12 mm"]

Would you mind listing inhibition zone (IZ) for each of the following compounds?
1. CN(C)c1ccc(C2CC(c3cc4ccccc4o3)=NN2C(=O)Cn2c3ccccc3c3nc4ccccc4nc32)cc1 (stereo unspecified)
2. O=C(Cn1c2ccccc2c2nc3ccccc3nc21)N1N=C(c2cc3ccccc3o2)CC1c1ccco1 (stereo unspecified)
3. O=C(Cn1c2ccccc2c2nc3ccccc3nc21)N1N=C(c2cc3ccccc3o2)CC1c1ccc(O)cc1 (stereo unspecified)
4. O=C(Cn1c2ccccc2c2nc3ccccc3nc21)N1N=C(c2cc3ccccc3o2)CC1/C=C/c1ccccc1 (stereo unspecified)
5. COc1ccc(C2CC(c3cc4ccccc4o3)=NN2C(=O)Cn2c3ccccc3c3nc4ccccc4nc32)cc1 (stereo unspecified)

Found:
1: 13 mm; 2: 14 mm; 3: 12 mm; 4: 12 mm; 5: 16 mm

###

So I've got a bunch of molecules here, and I need their log10 of MIC values.
test system: Escherichia coli; test: Antibacterial activity against multidrug-resistant Escherichia coli broth after 24 hrs by broth microdilution method; type: functional
// units: µg/mL (pre-log); metric: MIC; scale: log10

Example entries and their recorded answers appear below.
O=C(Cn1c2ccccc2c2nc3ccccc3nc21)N1N=C(c2cc3ccccc3o2)CC1c1ccco1 (stereo not drawn)    1.18
O=C(Cn1c2ccccc2c2nc3ccccc3nc21)N1N=C(c2cc3ccccc3o2)CC1c1ccc(O)cc1 (stereo not drawn)    1.15
O=C(O)c1ccccc1C1CC(c2cc3ccccc3o2)=NN1C(=O)Cn1c2ccccc2c2nc3ccccc3nc21 (stereo not drawn)    1.11
O=C(Cn1c2ccccc2c2nc3ccccc3nc21)N1N=C(c2cc3ccccc3o2)CC1/C=C/c1ccccc1 (stereo not drawn)    1.31

Would you mind listing log10 of MIC for each of the following molecules?
1. COc1ccc(C2CC(c3cc4ccccc4o3)=NN2C(=O)Cn2c3ccccc3c3nc4ccccc4nc32)c(O)c1 (stereo not drawn)
2. O=C(Cn1c2ccccc2c2nc3ccccc3nc21)N1N=C(c2cc3ccccc3o2)CC1c1ccccc1 (stereo not drawn)
3. O=C(Cn1c2ccccc2c2nc3ccccc3nc21)N1N=C(c2cc3ccccc3o2)CC1c1ccc(Cl)cc1 (stereo not drawn)

Found:
1: 1.13; 2: 0.90; 3: 1.35

Lookup: Quick one: log10 of MIC of O=C(Cn1c2ccccc2c2nc3ccccc3nc21)N1N=C(c2cc3ccccc3o2)CC1c1ccccc1O (stereo not drawn) ?
Found: 0.00
